# system: Gamma-secretase (Homo sapiens) (UniProt Q96BI3+Q9NZ42+Q8WW43+P49768+Q92542+P49810)
# assayNotes: Inhibition of gamma-secretase (unknown origin) expressed in N2a NL/N cells coexpressing betaAPPNL and NotchdeltaE assessed as Abeta42 secretion at 100 nM by ELISA
# Type: cell-based
The source made the active and inactive calls. No cut-off for these calls is given here.
Write down the outcome that applies. Available outcomes: active, inactive

Illustrative cases are given below, each with its answer.
CC(=O)N[C@H]1CCC[C@@H]1C(=O)N[C@H]1CCC[C@@H]1C(=O)N[C@@H](CCC(N)=O)CC(=O)N[C@H]1CCC[C@@H]1C(=O)N[C@H]1CCC[C@@H]1C(=O)N[C@H]1CCC[C@@H]1C(=O)N[C@H]1CCC[C@@H]1C(=O)N[C@H]1CCC[C@@H]1C(=O)N[C@H]1CCC[C@@H]1C(=O)N[C@H]1CCC[C@@H]1C(=O)N[C@H]1CCC[C@@H]1C(=O)N[C@H]1CCC[C@@H]1C(N)=O	active
CC(=O)N[C@H]1CCC[C@@H]1C(=O)N[C@H]1CCC[C@@H]1C(=O)N[C@@H](CCC(=O)O)CC(=O)N[C@H]1CCC[C@@H]1C(=O)N[C@H]1CCC[C@@H]1C(=O)N[C@H]1CCC[C@@H]1C(=O)N[C@H]1CCC[C@@H]1C(=O)N[C@H]1CCC[C@@H]1C(=O)N[C@H]1CCC[C@@H]1C(=O)N[C@H]1CCC[C@@H]1C(=O)N[C@H]1CCC[C@@H]1C(=O)N[C@H]1CCC[C@@H]1C(N)=O	active

Could you now look at the following molecule, please?
INPUT: I would be grateful if you could indicate the recorded call for CC(=O)N[C@H]1CCC[C@@H]1C(=O)N[C@H]1CCC[C@@H]1C(=O)N[C@@H](CC(=O)N[C@H]1CCC[C@@H]1C(=O)N[C@H]1CCC[C@@H]1C(=O)N[C@H]1CCC[C@@H]1C(=O)N[C@H]1CCC[C@@H]1C(=O)N[C@H]1CCC[C@@H]1C(=O)N[C@H]1CCC[C@@H]1C(=O)N[C@H]1CCC[C@@H]1C(=O)N[C@H]1CCC[C@@H]1C(=O)N[C@H]1CCC[C@@H]1C(N)=O)[C@@H](C)O .
OUTPUT: inactive
